Tested on: HCT-116 colon
Assay: NCI-60 one-dose screen, 48 h
Conditions: 10 µM unless noted
This is part of a sample that, as a whole, favours compounds with a hit. Of some 83,000 tested, about 20% had one in any assay. Calls of active or inactive are those of the source. How the source made its calls: active means growth percent below 10; inactive means the rest.
// one of true for active, false for inactive, no free text

Examples with answers:
[
  {
    "molecule": "S=c1ccnc[nH]1",
    "system name": "HCT-116 colon",
    "answer label": "false"
  },
  {
    "molecule": "CN(C)Cc1cc(C(C)(C)C)cc(Br)c1O",
    "system name": "HCT-116 colon",
    "answer label": "false"
  },
  {
    "molecule": "CCN(CC)C(=O)CC1=C(C)/C(=C/c2[nH]c(-c3ccc[nH]3)cc2OC)N=C1C",
    "system name": "HCT-116 colon",
    "answer label": "true"
  },
  {
    "molecule": "O=C(CSc1nnnn1-c1ccccc1)Nc1ccc(Oc2ccccc2)cc1",
    "system name": "HCT-116 colon",
    "answer label": "false"
  },
  {
    "molecule": "CC1=Nc2cnc(Nc3ccc(N4CCCCC4)cc3)nc2Nc2ccccc21",
    "system name": "HCT-116 colon",
    "answer label": "false"
  }
]

(Q) Hey, what did the test say about COCCn1cc(-c2csc(-c3c[nH]c4ccc(F)cc34)n2)c2cccnc21 ?
(A) false

(Q) What about this molecule? Nc1cc(Br)cc2c1[nH]c(=O)c1ccccc12
(A) false

These entries and their values trace back to PubChem BioAssay (NCI).
